test system: UO-31 renal; assay: NCI tumour cell line growth inhibition, 48 h
Consider the following molecules; for each one, report its TGI.

Give UO-31 renal TGI for "CC(C)NC(=O)OCCN=C1c2ccccc2CCc2ccccc21"
58.7 µM

Any idea what TGI came out for "O=C(O)c1ccc(C(c2c(O)c3ccccc3oc2=O)c2c(O)c3ccccc3oc2=O)cc1" on UO-31 renal?
> 100 µM

TGI of Cc1ccccc1C(C#N)C(=O)C(=O)Nc1cccc(Cl)c1 (stereo not drawn) on UO-31 renal?
> 100 µM

# value lookup — system UO-31 renal, readout TGI, item COP1(=O)Oc2ccccc2C(=O)C(C(F)(F)F)(C(F)(F)F)O1 (stereo not drawn)
> 100 µM

Please provide the recorded TGI for "O=C(CCCl)NNC1=NCCN1" , tested on UO-31 renal.
> 100 µM

Please tell me: TGI of "CC(C)n1c2c([n+](C)c1/C=C/c1ccccc1)C(=O)c1ccccc1C2=O" , system UO-31 renal?
10.1 µM

Please tell me: TGI of "C[C@@H]1C=C2C(=O)O[C@@H]3CC[C@H](C1)[C@]23O" , system UO-31 renal?
16.7 µM

Field: TGI (UO-31 renal). Entry: "COc1cc(/C=C2\COc3ccc(O)c(O)c3C2=O)cc(OC)c1"
2.29 µM

Short answer please: TGI, UO-31 renal, entry "COc1cc(C(=O)c2cc3c(cc2C)OCO3)cc(OC)c1OC"
> 100 µM

Query TGI on UO-31 renal for "CCN(CC)C(=O)COc1ccc(Br)cc1Br"
> 100 µM

// fetch UO-31 renal TGI for CC1C=CC(=O)C(n2cc(F)c(=O)[nH]c2=O)O1 (stereo not drawn)
30 µM

# returns recorded TGI (system: UO-31 renal) for "NCCCN1CCN(CC(=O)O)CCN(CCCN)CCN(CC(=O)O)CC1"
> 100 µM

Item CC(C)(C)C(=O)C1CC(=O)c2ccccc2C1=O (stereo not drawn) with UO-31 renal - TGI?
67.8 µM

Find TGI (UO-31 renal) for the entry "CCn1cnc2c(Nc3cccc(Cl)c3)nc(N[C@@H]3CCCC[C@@H]3N)nc21"
4.04 µM

Param readout = TGI; param system = UO-31 renal; param query = "COc1ccccc1Cn1nc(OC)c2cc([N+](=O)[O-])ccc21" ; response: value
> 79.6 µM

Form: Entry = "Cc1cc(C)c2c(=O)n(CN3CCC(O)(c4ccccc4)CC3)sc2n1" | System = UO-31 renal | TGI = ____
33.8 µM

# query: TGI | item "O=c1oc2ccc3ccccc3c2cc1-c1nc2ccccc2o1" | system: UO-31 renal
> 54.8 µM

Lab note: need TGI with UO-31 renal for entry COc1cc([C@@H]2c3[nH]c4ccccc4c3C(Nc3ccc([N+](=O)[O-])cc3)[C@H]3COC(=O)N23)cc(OC)c1O (stereo partly drawn) , please look it up.
3.22 µM

Reported TGI for UO-31 renal, given CCOC(=O)NC(NC(C)CC)(C(F)(F)F)C(F)(F)F (stereo not drawn) ?
> 100 µM

Item: "O=C(O)CC/C(=N\Nc1nsc2ccccc12)c1ccc(Cl)cc1" Test system: UO-31 renal Read-out: TGI Value: ?
> 67.1 µM

Form field - read-out: TGI; system: UO-31 renal; submitted item: N#Cc1cc([N+](=O)[O-])ccc1NC(=O)C(=O)C(C(=O)/C=C/c1ccccc1)C1OC(=O)c2ccccc21 (stereo not drawn)
> 100 µM

Hello, I am looking for reported TGI with UO-31 renal for "CCCN(CCC)c1ccc(/C=N/NC(=O)c2cccnc2)c(Cl)c1" . Could you help?
38.2 µM

Missing value: TGI, UO-31 renal, entry COC(=O)[C@]1(C)CCC[C@@]2(C)C1CCC1=CC3(C(C)C)CCC12OO3 (stereo partly drawn) . Fill in?
> 100 µM

API: value(readout=TGI, system=UO-31 renal) for record "COc1ccc([N+](=O)[O-])c(S(=O)(=O)c2ccc(Cl)cc2)n1"
10.2 µM

Request body: readout TGI, system UO-31 renal, query O=C(c1cccnc1)N1N=C(c2ccc(Cl)cc2)CC1(O)c1cc(F)c(Cl)cc1Cl (stereo not drawn) . Return the value.
> 100 µM

API: value(readout= TGI, system= UO-31 renal, query= "CC(C)(C)c1ccc(C(O)c2ccc(C(C)(C)C)cc2)cc1" )
29.7 µM

Param readout = TGI; param system = UO-31 renal; param query = CCC(C)C(NC(=O)C1CCCN1C(=O)C(NC(=O)C(C)N)C(C)C)C(N)=O (stereo not drawn) ; response: value
> 100 µM

Request body: readout TGI, system UO-31 renal, query "CCOC(=O)[C@@]12CCC(C1=O)[C@](C)(O)C[C@@H]2c1ccccc1" . Return the value.
> 100 µM

I'm curious: which TGI was measured for "COc1ccc2c(c1)CC[C@@H]1[C@@H]2CC[C@]2(C)C(c3ccco3)=C(C=O)C[C@@H]12" tested on UO-31 renal?
> 100 µM

Provide value of TGI for this record tested with UO-31 renal: "NS(=O)(=O)c1ccc(CCN=C=S)cc1"
2.87 µM

Requested read-out TGI, target or system UO-31 renal, entry "NCCC(O)(P(=O)(O)O)P(=O)(O)O"
> 100 µM

Enter reported TGI observed with UO-31 renal for "Nc1c(-c2ccc(Cl)cc2Cl)[n+]([O-])c2ccccc2[n+]1[O-]"
> 100 µM

Form field - read-out: TGI; system: UO-31 renal; submitted item: CC(CO)C1=CC(C#CCOCc2ccccc2)N(C(=O)Oc2ccccc2)c2ccccc21 (stereo not drawn)
> 100 µM

Tell me reported TGI for COc1ccc(/C=C2\CCC(C)(CN(C)C)C2=O)cc1 (stereo not drawn) , tested with UO-31 renal.
> 100 µM

Provide the documented TGI with UO-31 renal as the system for "COc1ccc([C@H]2CC(=O)NCCCCN2)cc1"
> 100 µM

Please state recorded TGI (tested on UO-31 renal) of CC1OC(OCC2COC(O)(Oc3c(-c4ccc(O)c(O)c4)oc4cc(O)cc(O)c4c3=O)C(O)C2O)C(O)C(O)C1O (stereo not drawn)
> 100 µM

What reported TGI corresponds to "COc1ccc(/C(C)=N/OC(=O)c2c(-c3ccccc3Cl)noc2C)cc1CN1CCOCC1" on UO-31 renal?
22.3 µM

Request - read-out TGI | tested on UO-31 renal | molecule "Cn1c2ccccc2c(=NNc2ccccc2C(=O)O)c2ccccc21"
64.5 µM

Can you look up TGI on UO-31 renal for Cc1cc(Cl)ccc1N=C1NC(=O)C(CC(=O)Nc2ccc(Cl)cc2Cl)S1 (stereo not drawn) ?
> 100 µM

Return TGI measured with UO-31 renal given this molecule: "COc1nc2sc3c(c2c(=O)n1CCCSSCCCn1c(OC)nc2sc4c(c2c1=O)CCCC4)CCCC3"
> 100 µM

Give the reported TGI for "COc1cc2c(c3c1c(=O)c1ccccc1n3C)C=CC1(CCCCC1)O2" (system: UO-31 renal).
0.255 µM

Value wanted: TGI (UO-31 renal) of entry CN(C)c1ccc(/C=C(\NC(=O)c2ccccc2)C2NC(Cc3c[nH]c4ccccc34)C(=O)O2)cc1 (stereo not drawn)
> 100 µM

Look up TGI with UO-31 renal for this molecule: Cc1cc(O)cc2c1O[C@@]1(C)CCC3[C@@]4(C)CC[C@H](O)C(C)(C)C4CC[C@@]3(C)[C@H]1C2 (stereo partly drawn)
22.6 µM

---

tested on: COLO 205 colon; assay: NCI tumour cell line growth inhibition, 48 h
Please respond with reported TGI for every item in the list.

Quick one: TGI of "Cc1[nH]c(=O)nc(NCCNCCO)c1C(=O)Nc1c2ccccc2nc2ccccc12" ?
> 100 µM

Item "N/N=C1\CCCc2c1no[n+]2[O-]" has what recorded TGI?
> 100 µM

Form field: reported TGI of COc1ccc2c(c1)N=C1CSC(c3cc([N+](=O)[O-])ccc3Cl)N1C2 (stereo unspecified)
79.6 µM

May I ask what TGI has been recorded for "NCCNC(=S)S" ?
> 100 µM

Query (compound): COC(=O)C1(Cc2ccccc2)Cc2ccc3c(c2C1=O)CCC3 (stereo unspecified) ; field requested: TGI
> 62.5 µM

Which TGI reading was recorded for the compound CC(C)NCC(O)c1ccc(OCc2ccccc2)c(OCc2ccccc2)c1-c1ccccc1 (stereo unspecified) ?
3.2 µM

Give the measured TGI of "O=c1[nH]nc(Cc2ccc(Cl)cc2)n1/N=C\c1ccc(/C=N/n2c(Cc3ccc(Cl)cc3)n[nH]c2=O)cc1" .
> 100 µM

Query: TGI; subject: "COc1cc(/C=C2\COc3ccc(O)c(O)c3C2=O)cc(OC)c1"
5.68 µM

Sample "CCOP(=O)(OCC)/C(C#N)=C/c1cccn1CC(C)C" — what was its TGI?
> 100 µM

Entry "CN(/N=C/C=N/N(C)C1=NCCCCN1)C1=NCCCCN1" : reported TGI = ?
> 100 µM

Fill blank: measured TGI of the compound CN(C)c1ccc(/C=C(\NC(=O)c2ccccc2)C(=O)NC(CCC(=O)O)C(=O)O)cc1 (stereo unspecified) is ____.
> 100 µM
